system: hErbB3.mmh (soluble monomeric human ErbB3 extracellular domain with C-terminal myc-myc-hexahistidine tag) (human, UniProt P21860 20-642)
Sequence (P21860 other isoform, or with tags, fused parts or gaps): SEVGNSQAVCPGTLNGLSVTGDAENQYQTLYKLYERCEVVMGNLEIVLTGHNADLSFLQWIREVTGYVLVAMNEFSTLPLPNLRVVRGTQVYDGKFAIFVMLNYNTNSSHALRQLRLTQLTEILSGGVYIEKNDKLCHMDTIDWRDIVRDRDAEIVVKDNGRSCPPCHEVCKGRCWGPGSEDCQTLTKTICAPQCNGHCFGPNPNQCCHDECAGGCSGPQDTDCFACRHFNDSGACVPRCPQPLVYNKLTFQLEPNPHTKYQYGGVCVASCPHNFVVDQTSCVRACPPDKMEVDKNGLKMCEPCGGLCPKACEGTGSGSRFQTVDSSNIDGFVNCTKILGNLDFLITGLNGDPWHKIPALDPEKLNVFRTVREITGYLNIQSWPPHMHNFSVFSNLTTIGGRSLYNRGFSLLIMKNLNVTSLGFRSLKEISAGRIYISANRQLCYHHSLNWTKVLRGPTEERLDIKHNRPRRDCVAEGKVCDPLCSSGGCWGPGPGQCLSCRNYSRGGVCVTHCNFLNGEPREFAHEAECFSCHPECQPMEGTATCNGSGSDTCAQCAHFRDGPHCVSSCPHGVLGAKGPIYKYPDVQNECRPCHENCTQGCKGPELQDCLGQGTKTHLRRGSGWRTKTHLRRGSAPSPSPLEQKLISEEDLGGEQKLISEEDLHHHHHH
assayExplanation: SPR (Biacore), 25 C, mAb capture format
# kon listing for each entry below
// units = M⁻¹ s⁻¹; emit number, no label

H4H2108P (antibody, V domains shown, Fully human, human IgG4 Fc (H4H prefix)) VH: EVQLLESGGDLVQPGGSLRLSCATSGFSFSSDAMNWVRQAPGKGLEWVSGISGSGGNTYYADSVKGRFTISRDISKSTLSLQMNSLRAEDTAVYYCAKEGTNMVRGVVMEDNGMDVWGQGTTVTVSA VL: DIQMTQSPSSVSASVGDRVTITCRASQGISDYLAWYQQKPGKAPKLLIYAASSLQSGVPSRFSGRGSGTDFTLTISTLQPEDFATYYCQQANSFPLTFGGGTKVDIKR; 1.95e+06
H4H2092P (antibody, V domains shown, Fully human, human IgG4 Fc (H4H prefix)) VH: EVQLVESGGGVVRPGGSLRLSCAASGFTFEDYGMNWVRQVPGKGLEWVSGTNWNGGITGYTGSVKGRFTISRDNAKNSLYLQMNSLRAEDTALYHCARDSGDQDAFDIWGQGTMVTVSS VL: DIQLTQSPSFLSASVGDRVTITCWASQDISSYLAWYQQKPGKAPKLLIYAASTFQSGVPSRFSGSGSGTEFTLTISNLQPEDFATYYCQQLDSYPLSFGGGTKVEIKR; 3.72e+06
H4H2114P (antibody, V domains shown, Fully human, human IgG4 Fc (H4H prefix)) VH: QVQLVESGGGVVQPGRSLRLSCAASGFTFSSYGMHWVRQAPGKGLEWVAGMSYDGSSKYYEDSVKGRFTISRDNSKNTLNLQMNSLRVEDTAVYYCAKERDYVEYVDSYYGMDVWGQGTTVTVSA VL: AIQMTQSPSSLSASVGDRVTITCRASQGIRNDLGWYQQKPGKAPKVLIYAASSLQSGVPSRFSGSGSGTVFTLTISSLQPEDFATYYCLQDYNYPLTFGGGTKVEIKR; 929000
H4H2147P (antibody, V domains shown, Fully human, human IgG4 Fc (H4H prefix)) VH: QVQLVESGGGLVKPGGSLRLSCAASGFTFSDFNMGWIRQAPGKGLEWVSHISGSGNVIYYADSVKGRFAISRDNGKNSLYLQVNSLRAEDTAVYYCARDIGDSDAFDIWGQGTMVTVSS VL: DIQLTQSPSFLSASVGDRVTITCWASQDISSYLAWYQQKPGKAPKLLIYGASTLESGVPSRFSGSGSGTEFTLTISSLQPEDVATYYCQQLNTYPLTFGGGTKVEIKR; 2.47e+06
H2M1824N (antibody, V domains shown, Hybridoma chimeric antibody: human variable domains, mouse IgG2 Fc (H2M prefix)) VH: EVQLVESGGGVVRPGGSLRLSCAASGFTFDDYGMSWVRQAPGKGLECVSGINWNGGSTDYADSVKGRFTISRDNAKNSLYLQMNSLRAEDTASYYCARDGGDWDYFDLWGRGTLVTVSS VL: EIVMTQSPATLSVSPGERATLSCRASQSVSSNLAWYQQKPGQAPRLLIYGASTRATGIPARFSGSGSGTEFTLTISSLQSEDFAVYFCQEYNDWPLTFGGGTKVEIK; 223000

kon reported for this binder H2M1829N (antibody, V domains shown, Hybridoma chimeric antibody: human variable domains, mouse IgG2 Fc (H2M prefix)) VH: EVQLVESGGGVVRPGGSLRLSCVASGFTFDDYGMSWVRQAPGKGLECVSGINWNGGSTDYADSVKGRFTISRDNAKNSLYLQMNSLRAEDTALYHCARDGGDWDYFDLWGRGTLVTVSS VL: EILMTQSPATLSVSPGERATLSCRASQSVSSNLAWYQQKPGQAPRLLIYGASTRATGIPARFSGSGSGTEFTLTISSLQSEDFAIYYCQEYNDWPLTFGGGTKVEIK : 230000
